Target: HMG-CoA reductase (Homo sapiens, UniProt P04035)
Construct: endogenous in cells; host or cells: HepG2 (Korea Cell Line Bank)
Sequence (P04035 1-888): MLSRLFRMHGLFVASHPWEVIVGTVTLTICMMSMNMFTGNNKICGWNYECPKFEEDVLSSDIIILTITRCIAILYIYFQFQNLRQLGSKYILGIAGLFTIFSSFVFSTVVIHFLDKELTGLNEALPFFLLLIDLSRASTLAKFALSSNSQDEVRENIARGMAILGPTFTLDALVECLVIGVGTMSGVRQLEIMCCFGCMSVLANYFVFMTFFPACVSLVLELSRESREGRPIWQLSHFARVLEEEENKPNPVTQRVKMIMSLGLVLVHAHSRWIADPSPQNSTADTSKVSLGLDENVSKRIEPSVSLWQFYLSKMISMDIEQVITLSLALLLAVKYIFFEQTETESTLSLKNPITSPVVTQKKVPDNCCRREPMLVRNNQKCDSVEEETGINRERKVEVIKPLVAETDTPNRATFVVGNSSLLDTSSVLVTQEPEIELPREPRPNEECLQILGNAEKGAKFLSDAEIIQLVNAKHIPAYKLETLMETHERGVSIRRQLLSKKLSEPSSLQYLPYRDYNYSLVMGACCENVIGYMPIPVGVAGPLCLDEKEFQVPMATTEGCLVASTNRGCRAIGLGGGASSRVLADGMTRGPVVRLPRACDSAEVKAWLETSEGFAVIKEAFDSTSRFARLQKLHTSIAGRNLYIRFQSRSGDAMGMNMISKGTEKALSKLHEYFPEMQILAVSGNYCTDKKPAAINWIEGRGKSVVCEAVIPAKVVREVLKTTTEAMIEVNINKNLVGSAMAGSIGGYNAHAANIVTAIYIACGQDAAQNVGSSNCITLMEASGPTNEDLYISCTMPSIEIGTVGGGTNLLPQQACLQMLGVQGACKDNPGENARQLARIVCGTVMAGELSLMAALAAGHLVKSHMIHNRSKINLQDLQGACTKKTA
Test: HMG-CoA reductase (HMGCR) degradation in HepG2 cells by western blotting
Type: cell-based
Conditions: treated for 18 hours, ratio of HMG-CoA reductase to GAPDH, read-out: DC50
Method: HepG2, a human liver cancer cell line, was purchased from the Korea Cell Line Bank (KCLB), Seoul, Korea. The passage in cell culture was maintained at P105 to P110. […] Then, a standard curve was obtained using the BCA assay, and the protein mass in the lysate was quantified by substituting the curve. The mixture was incubated at 37° C. for 30 minutes using 20 μL of standard or sample solution, and 200 μL of BCA or Bradford solution, and measured at 562 nm absorbance. […]
readout name: DC50

Answered examples (7):
Query: Specify DC50 for C[C@H]1C=C2C=C[C@H](C)[C@H](CC[C@@H]3C[C@@H](O[Si](C)(C)C(C)(C)C)CC(=O)O3)[C@H]2[C@@H](OC(=O)NCCOCCOCCNc2cccc3nnn(C4CCC(=O)NC4=O)c(=O)c23)C1 (some centres unmarked) and stop.
Result: < 50 nM

Query: Specify DC50 for C[C@H]1C=C2C=C[C@H](C)[C@H](CC[C@@H]3C[C@@H](O[Si](C)(C)C(C)(C)C)CC(=O)O3)[C@H]2[C@@H](OC(=O)NCCOCCOCCOCCOCCOCCOCCNc2cccc3c2C(=O)N(C2CCC(=O)NC2=O)C3=O)C1 (some centres unmarked) and stop.
Result: < 50 nM

Query: Specify DC50 for C[C@H]1C=C2C=C[C@H](C)[C@H](CC[C@@H]3C[C@@H](O)CC(=O)O3)[C@H]2[C@@H](OC(=O)NCCOCCOCC#Cc2cccc3c2C(=O)N(C2CCC(=O)NC2=O)C3=O)C1 (some centres unmarked) and stop.
Result: < 50 nM

Query: Specify DC50 for Cc1ncsc1-c1ccc(CNC(=O)[C@@H]2C[C@@H](O)CN2C(=O)[C@@H](NC(=O)COCCNC(=O)CCC(C)(C)C(=O)O[C@H]2C[C@@H](C)C=C3C=C[C@H](C)[C@H](CC[C@@H]4C[C@@H](O)CC(=O)O4)[C@H]32)C(C)(C)C)cc1 and stop.
Result: < 50 nM

Query: Specify DC50 for Cc1ncsc1-c1ccc(CNC(=O)[C@@H]2C[C@@H](O)CN2C(=O)[C@@H](NC(=O)C2(F)CC2)C(C)(C)C)c(OCCOCCOCCNC(=O)O[C@H]2C[C@@H](C)C=C3C=C[C@H](C)[C@H](CC[C@@H]4C[C@@H](O)CC(=O)O4)[C@H]32)c1 and stop.
Result: < 50 nM

Query: Specify DC50 for Cc1ncsc1-c1ccc(CNC(=O)[C@@H]2C[C@@H](O)CN2C(=O)[C@@H](NC(=O)C2(F)CC2)C(C)(C)C)c(OCCOCCOCCOCCNC(=O)O[C@H]2C[C@@H](C)C=C3C=C[C@H](C)[C@H](CC[C@@H]4C[C@@H](O)CC(=O)O4)[C@H]32)c1 and stop.
Result: < 50 nM

Query: Specify DC50 for C[C@H]1C=C2C=C[C@H](C)[C@H](CC[C@@H]3C[C@@H](O)CC(=O)O3)[C@H]2[C@@H](OC(=O)NCCOCCOCCNC(=O)COc2cccc3c2C(=O)N(C2CCC(=O)NC2=O)C3=O)C1 (some centres unmarked) and stop.
Result: 50 to 500 nM

Continuing:
Query: Specify DC50 for C[C@H]1C=C2C=C[C@H](C)[C@H](CC[C@@H]3C[C@@H](O)CC(=O)O3)[C@H]2[C@@H](OC(=O)N(C)CCOCCOCCNc2cccc3c2C(=O)N(C2CCC(=O)NC2=O)C3=O)C1 (some centres unmarked) and stop.
Result: < 50 nM
